system: Influenza A (A/Puerto Rico/8/34) virus; type: binding, influenza A virus H1N1

>  <Molecule>
3139_P23 (antibody, V domains shown) VH: QVQLQESGPRLVKPSESLSLTCTVSGGSISNSFWGWIRQPPGEGLEWIGYVYNSGNTKYNPSLKSRVTISRDTSKSQLYMKLRSVTAADTAVYYCARHDDASHGYSISWGHGTLVTVSS VL: DIQMTQSPSSLSASVGDRVTITCRASQTISTYLNWYQQKSGKAPKLLIYAASGLQSGVPSRFSGSGSGTDFTLTISSLQPEDFATYFCQQSYNTPLTFGQGTKVEIK

>  <Virus ELISA OD A450>
1.02

$$$$
>  <Molecule>
3241_G23 (antibody, V domains shown) VH: QVQLQQSGPGLVKPSQTLSLTCTVSGGPVSGGGYSWNWIRQRPGQGLEWVGFMFHSGSPRYNPTLKSRITISVDTSKNLVSLKLSSVTAADTAVYFCARVGQMDKYYAMDVWGQGTTVTVSS VL: DIQMTQSPSSLSSSVGDRVTITCRASQSIGAYVNWYQQKAGKAPQVLIFGASNLQSGVPSRFSGSGSGTDFTLTISSLQPEDFATYFCQQTYSTPITFGQGTRLEIK

>  <Virus ELISA OD A450>
3.02

$$$$
>  <Molecule>
3243_J07 (antibody, V domains shown) VH: QVQLQESGPGLLKPSDTLALTCTVSGGSITSDYWSWIRQPPGRGLDWIGFFYNGGSTKYNPSLKSRVTISADTSKNQLSLKLTSVTAADTGVYYCARHDVKFSGSYYVASWGQGTRVTVSS VL: DIQMTQSPSSLSASVGDRVTISCRASQSISTYLNWYQQQPGKAPKVLISGATNLQSGVPSRFSGSGSGTDFTLTISSLQPEDFATYYCQQSYNTPLIFGQGTKLEIK

>  <Virus ELISA OD A450>
2.94

$$$$
>  <Molecule>
3244_H04 (antibody, V domains shown) VH: EVQLVESGGGLVQPGGSLRLSCTASGLSVSSTYMNWVRQAPGKGLEWVSVFYSETRTYYADSVKGRFTVSRHNSNNTLYLQMNSLRAEDTAVYYCARVQRLSYGMDVWGQGTTVTVSS VL: DIQMTQSPSSLSASVGDRVTITCRASQSISTYLNWYQKRPGKAPKLLVYGASSLQSGVPSRFSGSGSGTDFTLTIASLQPEDSAVYYCQQTYSIPLFGQGTRLEIK

>  <Virus ELISA OD A450>
3.31

$$$$
>  <Molecule>
3362_B11 (antibody, V domains shown) VH: QVQLQASGPGLVKPSETLSLTCTVSGDSITSGAYYWTWIRQHPGKGLEWIGYIYYSGNTYYNPSLKSRVTISLDTSKNQFSLKVNSVTAADTAVYYCARAASTSVLGYGMDVWGQGTTVTVSS VL: DIQMTQSPSSLSASVGDRVTITCRASQSISRYLNWYQQEPGKAPKLLVYAASSLQSGVPSRFSGSGSGTDFTLTISSLQPEDFATYYCQQSYSTPLTFGQGTRLEIK

>  <Virus ELISA OD A450>
1.83

$$$$
